system_tested: Aldehyde dehydrogenase 1A1 (Homo sapiens) (UniProt P00352)
Sequence (P00352 whole entry, looked up): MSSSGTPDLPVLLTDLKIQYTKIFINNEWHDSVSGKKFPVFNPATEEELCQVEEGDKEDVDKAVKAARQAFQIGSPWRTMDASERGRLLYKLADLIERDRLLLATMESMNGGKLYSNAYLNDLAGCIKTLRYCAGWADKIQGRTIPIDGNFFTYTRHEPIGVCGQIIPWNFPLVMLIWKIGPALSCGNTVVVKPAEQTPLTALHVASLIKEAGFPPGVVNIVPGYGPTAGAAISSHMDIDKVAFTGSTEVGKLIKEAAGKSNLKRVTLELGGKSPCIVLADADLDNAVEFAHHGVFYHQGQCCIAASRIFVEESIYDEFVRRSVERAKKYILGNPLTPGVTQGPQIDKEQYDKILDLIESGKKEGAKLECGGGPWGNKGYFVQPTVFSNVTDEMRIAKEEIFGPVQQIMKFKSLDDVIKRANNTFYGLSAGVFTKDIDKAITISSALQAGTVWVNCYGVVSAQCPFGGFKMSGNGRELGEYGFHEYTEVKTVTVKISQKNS
protocol_summary: qHTS Assay for Inhibitors of Aldehyde Dehydrogenase 1 (ALDH1A1)
conditions: Purified ALDH1A1, NADH fluorescence, propionaldehyde substrate; series mostly up to 75.3 µM
The whole screen tested about 220,000 compounds, of which about 16,000 (7.3%) were called active. Another 25% or so got no clear call; they are omitted. Calls come from the whole dose curve; as a rule, active = well fitted inhibition curve with a large enough effect (not every such curve was filed as active); inconclusive = small, poorly fitted or top-dose-only effect, or another doubt; inactive = no such curve, though single readings can be large or run the other way. The list comes from a sample in which actives are over-represented; it also holds close analogues and randomly drawn compounds.
The reply should name one outcome from Yes = active, No = inactive

>>> assigned_class("COCCCNC(=O)C1CCC(CNS(=O)(=O)c2ccc(OC)cc2)CC1 (stereo not given)")
"No"
>>> assigned_class("CCN(CC)P(=O)(/C(Cl)=C\\Nc1c(C)n(C)n(-c2ccccc2)c1=O)N(CC)CC")
"Yes"
>>> assigned_class("C=C1c2cccc(OC)c2O[C@H](C(=O)OCC)[C@@H]1CCCCCC")
"No"
>>> assigned_class("COC(=O)Nc1c(C)n(C)n(-c2ccccc2)c1=O")
"No"
>>> assigned_class("Cc1c(NC(=S)Nc2ccccc2)c(=O)n(-c2ccccc2)n1C")
"No"

Asked: Look up the recorded call for "CN1CCN(C(=O)C2=C[C@H](c3ccc4c(c3)OCO4)C[C@H](OCc3ccc(CO)cc3)O2)CC1" in this test.
Given back: No

Asked: Could you do the same for "O=C(Nc1ccc(Cl)cn1)c1ccc2c(c1)OCCO2" , please?
Given back: No

Asked: Could you do the same for "COc1ccc(CCNC(=O)CN(c2ccccc2)S(C)(=O)=O)cc1" , please?
Given back: No

Asked: Could you do the same for "CCCCC/C=C\C/C=C\CCCCCCCCCC(=O)NCC(=O)O" , please?
Given back: No

Asked: Could you do the same for "CC(=O)n1cc([C@@H]2C=C(C(=O)N3CCN(Cc4ccc5c(c4)OCO5)CC3)O[C@H](OCc3ccc(CO)cc3)C2)c2ccccc21" , please?
Given back: Yes
